biological target: Mitogen-activated protein kinase 14 (Homo sapiens, UniProt Q16539); test: Affinity Phenotypic Cellular interaction (TNF-a release (stimmulated by LPS in human WB)) EUB0000711a MAPK14
Sequence (Q16539 whole entry): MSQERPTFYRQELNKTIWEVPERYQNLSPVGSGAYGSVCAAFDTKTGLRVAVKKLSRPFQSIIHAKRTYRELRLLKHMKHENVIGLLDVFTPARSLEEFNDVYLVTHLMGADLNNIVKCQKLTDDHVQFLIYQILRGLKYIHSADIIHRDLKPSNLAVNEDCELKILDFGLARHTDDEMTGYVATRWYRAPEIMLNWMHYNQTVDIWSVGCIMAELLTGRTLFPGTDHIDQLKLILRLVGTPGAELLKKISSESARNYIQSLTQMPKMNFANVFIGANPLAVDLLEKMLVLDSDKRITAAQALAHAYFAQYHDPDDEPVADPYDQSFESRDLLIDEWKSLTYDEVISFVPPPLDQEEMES
MEASURED_ATTRIBUTE: IC50

> print(dat)
                                   compound                       experimental.system  measured.attribute  observed
1  O=C(NCCCC1CCCCC1)c1ccc(CNC(=O)c2cnn(-c3ccccc3)c2C(F)(F)F)cc1 [SR-321]  Mitogen-activated protein kinase 14 (Homo sapiens, UniProt Q16539)                IC50   > 10 µM
